- protocol.details: Inhibition of Bacteroides thetaiotaomicron recombinant alpha-L-fucosidase using 2-chloro-4-nitrophenyl-alpha-L-fucopyranoside as substrate after 5 mins by Michaelis Menten equation analysis
property.name: pKi
Numbers only, as −log10 of the molar value.

IN: Using the record for `C[C@@H]1N[C@@H](c2nc3ccccc3[nH]2)[C@H](O)[C@@H]1O` , report its pKi.
OUT: 5.70

====

- protocol.details: Inhibition of bovine kidney fucosidase
- Parameters: species or system Bos taurus
property.name: Ki
Respond with a number, then the unit of measure.

IN: Using the record for `C[C@@H]1N[C@@H](c2nc3ccccc3[nH]2)[C@H](O)[C@@H]1O` , report its Ki.
OUT: 0.08 µM
